Source of measurements: PubChem BioAssay (NCI)

test system: SF-295 CNS; experiment: NCI-60 one-dose screen, 48 h; details: 10 µM unless noted
The panel holds about 83,000 compounds, 20% with a hit somewhere; the sample as a whole holds those more often. Active and inactive are the calls of the source. The calls were made as follows: active = growth percent below 10; inactive = the rest.
Outcome codes: active, inactive

{"Compound": "NC(N)=NC1CCCCC1", "Discrete Label": "inactive"}
{"Compound": "Oc1ccccc1-c1nnc(COc2ccc(Cl)cc2Cl)o1", "Discrete Label": "inactive"}
{"Compound": "COc1ccc(-c2cc(-c3ccc(OC)cc3)c3sc(=O)[nH]c3n2)cc1", "Discrete Label": "inactive"}
{"Compound": "c1ccc2c(N=NSc3ncnc4nc[nH]c34)c3ccccc3nc2c1", "Discrete Label": "inactive"}
{"Compound": "COc1ccc(/C=C/c2nc(NCCCN(C)C)c3ccccc3n2)cc1", "Discrete Label": "inactive"}
{"Compound": "CCCCCCCCCCCC1=NC(C)(C)CN1CC(C)O (stereo unspecified)", "Discrete Label": "inactive"}
{"Compound": "CCc1onc(-c2ccc(OC)cc2)c1-c1ccccc1OCCN(CC)CC", "Discrete Label": "inactive"}
{"Compound": "O=C(Nc1cccc(Cl)c1)Nc1ccccc1Cl", "Discrete Label": "inactive"}
{"Compound": "O=C(Nc1ccc([N+](=O)[O-])cc1)c1cc2ccccc2cc1O", "Discrete Label": "active"}
{"Compound": "O=c1c2cc(Br)cc(Br)c2nc(-c2ccc(Cl)cc2)n1/N=C/c1cccc(F)c1", "Discrete Label": "inactive"}
{"Compound": "O=C(Nc1ccc(Cl)cc1)c1cc(-c2ccc(Cl)cc2)c2sc(=O)[nH]c2n1", "Discrete Label": "active"}
